test system: SMN2-linked luciferase-reporter gene construct; experiment: SMN splice reporter assay (SMN2-linked luciferase reporter, Example 10); format: cell-based; conditions: SMN2-linked luciferase reporter, average
pEC50: −log10 of the molar value.
measured.metric: pEC50

[
  {
    "compound": "CC(C(=O)O)c1ccc(N2Cc3ccc(OCC4CC4)cc3C2=O)cc1 (centres unmarked)",
    "measured.on": "SMN2-linked luciferase-reporter gene construct",
    "measured.metric": "pEC50",
    "endpoint.result": 6.94
  },
  {
    "compound": "Cc1ccc2c(c1)CN(c1ccc(C(C)C(=O)O)cc1)C2=O (centres unmarked)",
    "measured.on": "SMN2-linked luciferase-reporter gene construct",
    "measured.metric": "pEC50",
    "endpoint.result": 6.84
  },
  {
    "compound": "CC(C(=O)O)c1ccc(N2CC3=C(CCCC3)C2=O)cc1 (centres unmarked)",
    "measured.on": "SMN2-linked luciferase-reporter gene construct",
    "measured.metric": "pEC50",
    "endpoint.result": 6.55
  },
  {
    "compound": "CC(C(=O)O)c1ccc(N2C(=O)c3ccccc3C2C)cc1 (centres unmarked)",
    "measured.on": "SMN2-linked luciferase-reporter gene construct",
    "measured.metric": "pEC50",
    "endpoint.result": 5.85
  },
  {
    "compound": "CC(C(=O)O)c1ccc(N2Cc3cc(-c4cccs4)ccc3C2=O)cc1 (centres unmarked)",
    "measured.on": "SMN2-linked luciferase-reporter gene construct",
    "measured.metric": "pEC50",
    "endpoint.result": 6.04
  }
]

----------
tested on: SMN2-linked luciferase-reporter gene construct; experiment: SMN splice reporter assay (SMN2-linked luciferase reporter, Example 10); assay type: cell-based; details: SMN2-linked luciferase reporter, average
pEC50: −log10 of the molar value.
Please enter condition met where pEC50 is greater than or equal to 7, and condition not met where it is lower.

[
  {
    "molecule": "CCOc1cccc2c1C(=O)N(c1ccc(C(C)C(=O)O)cc1)C2 (centres unmarked) [ALB-113391]",
    "assigned.label": "condition not met"
  },
  {
    "molecule": "CC(C)(C)c1ccc(N2Cc3ccc(Br)cc3C2=O)cc1 [ALB-115583]",
    "assigned.label": "condition not met"
  },
  {
    "molecule": "COc1ccc2c(c1)CN(c1ccc(C(C)C)cc1)C2=O [ALB-117453]",
    "assigned.label": "condition not met"
  },
  {
    "molecule": "CCOCc1ccc2c(c1)C(=O)N(c1ccc(C(C)COC)cc1)C2 (centres unmarked) [ALB-114846]",
    "assigned.label": "condition not met"
  },
  {
    "molecule": "CC(C)c1ccc(N2Cc3ccc4c(c3C2=O)OCO4)cc1 [ALB-117751]",
    "assigned.label": "condition met"
  },
  {
    "molecule": "CC(C)c1ccc2c(c1)C(=O)N(c1ccc(C(C)C(=O)O)cc1)C2 (centres unmarked) [ALB-113563]",
    "assigned.label": "condition met"
  },
  {
    "molecule": "CCc1ccc2c(c1)C(=O)N(c1ccc(C(C)C(=O)OC(C)(C)C)cc1)C2 (centres unmarked) [ALB-113211]",
    "assigned.label": "condition not met"
  },
  {
    "molecule": "Cc1ccc2c(c1)C(=O)N(c1ccc(C3CC3)cc1)C2 [ALB-115949]",
    "assigned.label": "condition met"
  },
  {
    "molecule": "CC(C)(C)c1ccc(N2Cc3ccc(OC(F)F)cc3C2=O)cc1 [ALB-119043]",
    "assigned.label": "condition not met"
  },
  {
    "molecule": "CC(C(=O)OC(C)(C)C)c1ccc(N2Cc3cccc(Br)c3C2=O)cc1 (centres unmarked) [ALB-112065]",
    "assigned.label": "condition not met"
  },
  {
    "molecule": "CC(C)c1ccc(N2Cc3cc(O)ccc3C2=O)cc1 [ALB-118277]",
    "assigned.label": "condition met"
  },
  {
    "molecule": "COCc1ccc2c(c1)C(=O)N(c1ccc(C(C)COC)cc1)C2 (centres unmarked) [ALB-114942]",
    "assigned.label": "condition not met"
  },
  {
    "molecule": "C=Cc1ccc2c(c1)CN(c1ccc(C(C)C(=O)O)cc1)C2=O (centres unmarked) [ALB-113390]",
    "assigned.label": "condition not met"
  },
  {
    "molecule": "COc1ccc2c(c1)C(=O)N(c1ccc(C(C)CO)cc1)C2 (centres unmarked) [ALB-114606]",
    "assigned.label": "condition not met"
  },
  {
    "molecule": "COc1ccc(-c2ccc3c(c2)CN(c2ccc(C(C)C(=O)O)cc2)C3=O)cc1 (centres unmarked) [ALB-111892]",
    "assigned.label": "condition not met"
  },
  {
    "molecule": "COC(=O)C(C)c1ccc(N2Cc3ccccc3C2)cc1 (centres unmarked) [ALB-112192]",
    "assigned.label": "condition not met"
  },
  {
    "molecule": "CC(C)c1ccc(N2Cc3ccccc3C2=O)cc1 [ALB-114274]",
    "assigned.label": "condition met"
  },
  {
    "molecule": "CC(C)Oc1ccc2c(c1)C(=O)N(c1ccc(C(C)C(=O)O)cc1)C2 (centres unmarked) [ALB-113492]",
    "assigned.label": "condition met"
  },
  {
    "molecule": "COc1cc2c(c(OC)c1)C(=O)N(c1ccc(C(C)C)cc1)C2 [ALB-118034]",
    "assigned.label": "condition not met"
  },
  {
    "molecule": "CCOc1ccc2c(c1)C(=O)N(c1ccc(C(C)C)cc1)C2 [ALB-116074]",
    "assigned.label": "condition not met"
  },
  {
    "molecule": "C=Cc1ccc2c(c1)C(=O)N(c1ccc(C(C)C)cc1)C2 [ALB-115714]",
    "assigned.label": "condition met"
  },
  {
    "molecule": "CC(C(=O)O)c1ccc(N2Cc3cc(-c4ccccc4)ccc3C2=O)cc1 (centres unmarked) [ALB-111993]",
    "assigned.label": "condition not met"
  },
  {
    "molecule": "CC(=O)Nc1ccc2c(c1)C(=O)N(c1ccc(C(C)C)cc1)C2 [ALB-118157]",
    "assigned.label": "condition not met"
  },
  {
    "molecule": "CC(C)Cc1ccc2c(c1)C(=O)N(c1ccc(C(C)C(=O)O)cc1)C2 (centres unmarked) [ALB-115426]",
    "assigned.label": "condition met"
  },
  {
    "molecule": "CC(C)c1ccc(N2Cc3ccc(NC(=O)N(C)C)cc3C2=O)cc1 [ALB-118731]",
    "assigned.label": "condition not met"
  },
  {
    "molecule": "CC(C)c1ccc(N2Cc3ccc(NC(N)=O)cc3C2=O)cc1 [ALB-117573]",
    "assigned.label": "condition not met"
  },
  {
    "molecule": "COCC(C)(C)c1ccc(N2Cc3ccc(OC)cc3C2=O)cc1 [ALB-115706]",
    "assigned.label": "condition not met"
  },
  {
    "molecule": "CC(C)c1ccc(N2Cc3cc(N)ccc3C2=O)cc1 [ALB-117747]",
    "assigned.label": "condition met"
  },
  {
    "molecule": "CC(C(=O)OC(C)(C)C)c1ccc(N2Cc3cc(C#N)ccc3C2=O)cc1 (centres unmarked) [ALB-112444]",
    "assigned.label": "condition not met"
  },
  {
    "molecule": "COc1ccc2c(c1)C(=O)N(c1ccc(C(C)C(=O)OC(C)(C)C)cc1)C2 (centres unmarked) [ALB-112354]",
    "assigned.label": "condition not met"
  },
  {
    "molecule": "CC(C(=O)O)c1ccc(N2Cc3ccc(F)cc3C2=O)cc1 (centres unmarked) [ALB-113836]",
    "assigned.label": "condition not met"
  },
  {
    "molecule": "Cc1ccc(-c2ccc3c(c2)CN(c2ccc(C(C)C(=O)O)cc2)C3=O)cc1 (centres unmarked) [ALB-111891]",
    "assigned.label": "condition not met"
  },
  {
    "molecule": "CNC(=O)Nc1ccc2c(c1)C(=O)N(c1ccc(C(C)C)cc1)C2 [ALB-118558]",
    "assigned.label": "condition not met"
  }
]

----------
Consider the following compounds and their measured EC50 readings.
tested on: SMN2-linked luciferase-reporter gene construct; test: SMN splice reporter assay (SMN2-linked luciferase reporter, Example 10); format: cell-based; conditions: SMN2-linked luciferase reporter, average

[
  {
    "compound": "CC(C(=O)O)c1ccc(N2Cc3cccc(-c4ccc(Cl)cc4)c3C2=O)cc1 (centres unmarked) [ALB-112175]",
    "EC50 [µM]": 16.9
  },
  {
    "compound": "CCC(C(=O)O)c1ccc(N2Cc3ccccc3C2=O)cc1 (centres unmarked) [ALB-112433]",
    "EC50 [µM]": 4.19
  },
  {
    "compound": "CCc1ccc2c(c1)C(=O)N(c1ccc(C(C)COC)cc1)C2 (centres unmarked) [ALB-115328]",
    "EC50 [µM]": 0.298
  },
  {
    "compound": "O=C1c2cc3c(cc2CN1c1ccc(C2CC2)cc1)OCCO3 [ALB-117043]",
    "EC50 [µM]": 0.068
  },
  {
    "compound": "CC(C)(C(=O)O)c1ccc(N2Cc3ccccc3C2=O)cc1 [ALB-111796]",
    "EC50 [µM]": 3.52
  }
]
